// values below are IC50; system is Glutamate carboxypeptidase 2 (Homo sapiens)

>  <compound>
CC(=O)NCCOCCOCCOCCC(=O)N(CCCOc1cc(C#N)cc(C#N)c1)CC(=O)N[C@@H](Cc1ccc2ccccc2c1)C(=O)NCCCC[C@H](NC(=O)N[C@@H](CCC(=O)O)C(=O)O)C(=O)O [US20250213705, Compound 78]

>  <targetUnderTest>
Glutamate carboxypeptidase 2 (Homo sapiens)

>  <IC50 [nM]>
6.95

$$$$
>  <compound>
CC(=O)NCCCC[C@H](NC(=O)[C@H]1CC[C@H](CNC(=O)CCOCCOCCOCCNC(C)=O)CC1)C(=O)NCCCC[C@H](NC(=O)N[C@@H](CCC(=O)O)C(=O)O)C(=O)O [US20250213705, Compound 83]

>  <targetUnderTest>
Glutamate carboxypeptidase 2 (Homo sapiens)

>  <IC50 [nM]>
2.87

$$$$
>  <compound>
CC(=O)NCCOCCOCCOCCC(=O)N[C@@H]1C[C@@H](C(=O)N[C@@H](Cc2ccc3ccccc3c2)C(=O)NCCCC[C@H](NC(=O)N[C@@H](CCC(=O)O)C(=O)O)C(=O)O)N(C(=O)COc2cc(C#N)cc(C#N)c2)C1 [US20250213705, Compound 81]

>  <targetUnderTest>
Glutamate carboxypeptidase 2 (Homo sapiens)

>  <IC50 [nM]>
10.7

$$$$
>  <compound>
CC(=O)NCCOCCOCCOCCC(=O)N1C[C@H](NC(=O)CCCOc2cc(C#N)cc(C#N)c2)C[C@H]1C(=O)N[C@@H](Cc1ccc2ccccc2c1)C(=O)NCCCC[C@H](NC(=O)N[C@@H](CCC(=O)O)C(=O)O)C(=O)O [US20250213705, Compound 80]

>  <targetUnderTest>
Glutamate carboxypeptidase 2 (Homo sapiens)

>  <IC50 [nM]>
2.35

$$$$

----------
# targetUnderTest: Glutamate carboxypeptidase 2 (Homo sapiens, UniProt Q04609)
# Sequence (Q04609 whole entry): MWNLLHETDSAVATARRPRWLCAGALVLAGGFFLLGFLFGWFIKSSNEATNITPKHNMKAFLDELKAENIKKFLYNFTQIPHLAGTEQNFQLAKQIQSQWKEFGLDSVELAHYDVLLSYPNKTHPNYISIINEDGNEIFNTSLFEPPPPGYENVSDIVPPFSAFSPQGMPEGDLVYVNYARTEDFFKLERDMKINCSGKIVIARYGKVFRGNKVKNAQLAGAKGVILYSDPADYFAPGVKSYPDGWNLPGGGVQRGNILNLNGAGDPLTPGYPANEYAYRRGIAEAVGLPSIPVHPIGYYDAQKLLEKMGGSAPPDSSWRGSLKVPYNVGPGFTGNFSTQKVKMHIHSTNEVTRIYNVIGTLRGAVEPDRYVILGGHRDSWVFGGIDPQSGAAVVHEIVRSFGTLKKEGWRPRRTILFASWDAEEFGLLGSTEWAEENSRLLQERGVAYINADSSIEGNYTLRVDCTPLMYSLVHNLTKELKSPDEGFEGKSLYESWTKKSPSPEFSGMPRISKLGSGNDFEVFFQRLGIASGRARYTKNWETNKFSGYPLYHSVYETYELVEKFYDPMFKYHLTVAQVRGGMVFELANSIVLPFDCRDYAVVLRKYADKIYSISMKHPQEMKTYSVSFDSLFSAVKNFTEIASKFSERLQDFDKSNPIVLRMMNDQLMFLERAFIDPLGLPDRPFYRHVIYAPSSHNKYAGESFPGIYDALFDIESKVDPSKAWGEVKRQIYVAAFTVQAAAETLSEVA
pIC50: −log10 of the molar value.
metricName: pIC50

>  <molecule>
CC(=O)NCCOCCOCCOCCC(=O)N(CCCOc1cc(C(F)(F)F)cc(C(F)(F)F)c1)CC(=O)N[C@@H](Cc1ccc2ccccc2c1)C(=O)NCCCC[C@H](NC(=O)N[C@@H](CCC(=O)O)C(=O)O)C(=O)O [US20250213705, Compound 86]

>  <metricName>
pIC50

>  <reported>
7.23

$$$$
>  <molecule>
CC(=O)NCCOCCOCCOCCC(=O)N1C[C@H](NC(=O)CCCOc2cc(C#N)cc(C#N)c2)C[C@H]1C(=O)NCC(=O)N[C@@H](Cc1ccc2ccccc2c1)C(=O)NCCCC[C@H](NC(=O)N[C@@H](CCC(=O)O)C(=O)O)C(=O)O [US20250213705, Compound 91]

>  <metricName>
pIC50

>  <reported>
7.58

$$$$
>  <molecule>
CC(=O)NCCOCCOCCOCCC(=O)NC[C@H]1CC[C@H](C(=O)N[C@@H](CCCCNC(=O)C(F)(F)F)C(=O)NCCCC[C@H](NC(=O)N[C@@H](CCC(=O)O)C(=O)O)C(=O)O)CC1 [US20250213705, Compound 54]

>  <metricName>
pIC50

>  <reported>
7.05

$$$$
>  <molecule>
CC(=O)NCCOCCOCCOCCC(=O)NC[C@H]1CC[C@H](C(=O)N[C@@H](Cc2ccc3ccccc3c2)C(=O)NCCCC[C@H](NC(=O)N[C@@H](CC(=O)O)C(=O)O)C(=O)O)CC1 [US20250213705, Compound 23]

>  <metricName>
pIC50

>  <reported>
5.15

$$$$

----------
pKd: −log10 of the molar value.
// values below are pKd; system is Glutamate carboxypeptidase 2 (Homo sapiens)
metricName: pKd

>  <structureSmilesString>
CC(=O)NCCOCCOCCOCCC(=O)N(CCCOc1cc(C(F)(F)F)cc(C(F)(F)F)c1)CC(=O)N[C@@H](Cc1ccc2ccccc2c1)C(=O)NCCCC[C@H](NC(=O)N[C@@H](CCC(=O)O)C(=O)O)C(=O)O

>  <reported>
8.93

$$$$
>  <structureSmilesString>
CC(=O)NCCOCCOCCOCCC(=O)N[C@@H](Cc1ccc(C(=O)O)cc1)C(=O)NCC(=O)N[C@@H](Cc1ccc2ccccc2c1)C(=O)NCCCC[C@H](NC(=O)N[C@@H](CCC(=O)O)C(=O)O)C(=O)O

>  <reported>
8.63

$$$$
